Listing of entries alongside the reported IC50.
TARGET DESC: human full length PIK3CA H1047R mutant (p110α/p85α complex) (Homo sapiens (Human), UniProt P42336, H1047R)
Sequence (P42336 whole entry H1047R): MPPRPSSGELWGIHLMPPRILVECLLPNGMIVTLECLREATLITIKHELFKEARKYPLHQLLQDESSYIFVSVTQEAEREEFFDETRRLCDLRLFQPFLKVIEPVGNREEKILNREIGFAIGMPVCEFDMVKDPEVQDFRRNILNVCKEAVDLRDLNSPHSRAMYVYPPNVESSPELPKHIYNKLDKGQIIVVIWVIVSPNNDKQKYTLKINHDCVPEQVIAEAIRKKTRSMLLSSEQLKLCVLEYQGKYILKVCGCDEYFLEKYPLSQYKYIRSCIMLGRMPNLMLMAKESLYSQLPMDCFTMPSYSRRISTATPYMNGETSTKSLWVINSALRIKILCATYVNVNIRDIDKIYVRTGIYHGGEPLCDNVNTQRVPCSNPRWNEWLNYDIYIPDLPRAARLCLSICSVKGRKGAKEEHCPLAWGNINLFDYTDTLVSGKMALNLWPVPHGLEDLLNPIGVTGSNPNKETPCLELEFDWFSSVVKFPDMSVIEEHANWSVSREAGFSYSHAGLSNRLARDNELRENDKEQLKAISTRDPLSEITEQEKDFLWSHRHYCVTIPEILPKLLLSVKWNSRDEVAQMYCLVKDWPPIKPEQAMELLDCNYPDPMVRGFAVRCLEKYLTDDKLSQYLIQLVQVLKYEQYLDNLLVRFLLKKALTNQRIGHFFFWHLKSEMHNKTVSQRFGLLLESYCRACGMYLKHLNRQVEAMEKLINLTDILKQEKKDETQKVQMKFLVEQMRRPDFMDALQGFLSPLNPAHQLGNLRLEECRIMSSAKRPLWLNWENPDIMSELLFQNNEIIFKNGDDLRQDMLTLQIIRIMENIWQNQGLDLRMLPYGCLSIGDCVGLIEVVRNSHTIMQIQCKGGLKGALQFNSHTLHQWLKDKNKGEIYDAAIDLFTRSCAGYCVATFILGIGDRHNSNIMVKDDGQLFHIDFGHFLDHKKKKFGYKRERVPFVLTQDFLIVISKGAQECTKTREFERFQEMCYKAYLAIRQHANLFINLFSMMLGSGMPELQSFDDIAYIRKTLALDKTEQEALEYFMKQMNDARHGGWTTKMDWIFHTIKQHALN
Sequence (P27986 whole entry partner): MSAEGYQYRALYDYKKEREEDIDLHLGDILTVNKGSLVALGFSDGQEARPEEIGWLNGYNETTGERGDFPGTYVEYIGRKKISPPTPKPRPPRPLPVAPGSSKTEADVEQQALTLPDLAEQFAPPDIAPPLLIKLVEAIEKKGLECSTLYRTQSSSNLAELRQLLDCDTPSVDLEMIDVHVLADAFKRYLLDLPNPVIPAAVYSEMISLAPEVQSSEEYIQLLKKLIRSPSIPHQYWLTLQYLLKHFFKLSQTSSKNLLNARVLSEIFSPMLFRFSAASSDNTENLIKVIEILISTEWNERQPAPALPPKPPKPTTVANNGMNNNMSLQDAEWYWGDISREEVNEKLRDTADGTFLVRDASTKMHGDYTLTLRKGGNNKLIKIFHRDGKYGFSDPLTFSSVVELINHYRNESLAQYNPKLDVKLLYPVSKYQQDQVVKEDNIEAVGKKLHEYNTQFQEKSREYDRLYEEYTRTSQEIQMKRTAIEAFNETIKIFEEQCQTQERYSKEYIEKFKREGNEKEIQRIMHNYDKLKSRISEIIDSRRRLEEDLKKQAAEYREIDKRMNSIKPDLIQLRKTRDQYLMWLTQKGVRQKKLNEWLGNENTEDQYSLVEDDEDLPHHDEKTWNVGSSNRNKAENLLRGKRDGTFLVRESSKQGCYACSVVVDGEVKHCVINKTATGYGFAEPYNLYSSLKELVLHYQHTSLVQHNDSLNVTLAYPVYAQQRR
EXPERIMENTAL DETAILS: PI3K-Alpha kinase (PIK3CA) activity, H1047R mutant, Transcreener ADP2 FI assay
CONDITION INFO: PI3K-α (PIK3CA) H1047R mutant, biochemical

These recorded examples may help you get a feel for the data.
Please fill in: IC50 reported for Cc1cc(C(C)Nc2ccccc2C(=O)O)c2oc(N3CCC4(CC3)CN(C)C(=O)O4)cc(=O)c2c1 (stereo not drawn) [Example 380] = 1000 to 5000 nM

Given item Cc1cc(C(C)Nc2ccc(F)cc2C(=O)O)c2oc(N3Cc4ccc(F)cc4C3)cc(=O)c2c1 (single isomer, unassigned) [Example 349] , the value recorded as its IC50 is < 500 nM

Now look at this entry.
Consider Cc1cc(C(C)Nc2ccccc2C(=O)O)c2oc(N3C4CCCC3C4)cc(=O)c2c1 (single isomer, unassigned; isomer 2) [Example 425] . Its measured IC50 is < 500 nM
